Target: T1, human MSR1 extracellular domain expressed with a N-terminal nonahistidine tag (His9-hMSR1); R&D Systems, Cat … (human, UniProt P21757 77-451)
T1 construct: extracellular domain; also called His-hMSR1; 9xHis-hMSR1; not shown: N-terminal nonahistidine tag
T1 sequence (looked up): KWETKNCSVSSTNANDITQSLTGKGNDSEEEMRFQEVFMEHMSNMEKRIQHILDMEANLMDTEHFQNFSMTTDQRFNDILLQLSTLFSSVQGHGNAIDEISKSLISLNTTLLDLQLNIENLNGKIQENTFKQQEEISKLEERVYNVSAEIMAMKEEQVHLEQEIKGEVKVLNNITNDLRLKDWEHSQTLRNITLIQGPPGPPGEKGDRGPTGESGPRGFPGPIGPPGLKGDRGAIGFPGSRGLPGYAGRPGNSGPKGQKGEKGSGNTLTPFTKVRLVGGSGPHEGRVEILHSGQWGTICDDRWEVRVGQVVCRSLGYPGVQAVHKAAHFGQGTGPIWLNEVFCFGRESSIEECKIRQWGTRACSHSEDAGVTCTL
Experiment: SPR Biacore, 25 C, antibody captured; kd fixed, no dissociation seen
pKd: −log10 of the molar value.
Experimental readout: pKd

[ask] I have this binder here, H1H27754P-N297Q (antibody, V domains shown, Human IgG1 Fc with N297Q point mutation) VH: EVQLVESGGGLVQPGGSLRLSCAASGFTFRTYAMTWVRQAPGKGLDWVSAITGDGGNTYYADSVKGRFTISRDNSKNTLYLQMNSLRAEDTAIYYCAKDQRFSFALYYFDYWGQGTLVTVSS VL: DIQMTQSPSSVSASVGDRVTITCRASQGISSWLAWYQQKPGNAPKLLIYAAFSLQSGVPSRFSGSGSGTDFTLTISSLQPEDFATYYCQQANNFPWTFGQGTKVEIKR , and I need its recorded pKd.
[reply] ≥ 10.46

[ask] Fill blank: measured pKd of the binder H1H21234N-N297Q (antibody, V domains shown, Human IgG1 Fc with N297Q point mutation (EU numbering)) VH: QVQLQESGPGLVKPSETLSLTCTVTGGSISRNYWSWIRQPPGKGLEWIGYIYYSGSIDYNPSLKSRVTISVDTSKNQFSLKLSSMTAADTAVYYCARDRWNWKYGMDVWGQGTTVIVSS VL: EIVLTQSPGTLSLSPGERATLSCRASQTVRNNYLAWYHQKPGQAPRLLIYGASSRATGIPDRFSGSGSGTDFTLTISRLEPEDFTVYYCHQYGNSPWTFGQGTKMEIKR is ____.
[reply] ≥ 10.70

[ask] What does the record list as pKd for H1H21234N (antibody, V domains shown, Original human IgG1 Fc (no N297 mutation)) VH: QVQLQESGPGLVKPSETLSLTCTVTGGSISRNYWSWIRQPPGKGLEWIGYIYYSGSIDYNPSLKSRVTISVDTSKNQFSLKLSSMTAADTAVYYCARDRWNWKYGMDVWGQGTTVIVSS VL: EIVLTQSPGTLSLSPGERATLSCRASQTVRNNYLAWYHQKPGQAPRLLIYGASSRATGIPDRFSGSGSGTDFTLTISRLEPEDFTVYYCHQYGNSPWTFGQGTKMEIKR ?
[reply] ≥ 10.78
